Target: CDK1 CCNA2 (human) (UniProt P06493+P20248)
Sequence (P06493 whole entry, looked up): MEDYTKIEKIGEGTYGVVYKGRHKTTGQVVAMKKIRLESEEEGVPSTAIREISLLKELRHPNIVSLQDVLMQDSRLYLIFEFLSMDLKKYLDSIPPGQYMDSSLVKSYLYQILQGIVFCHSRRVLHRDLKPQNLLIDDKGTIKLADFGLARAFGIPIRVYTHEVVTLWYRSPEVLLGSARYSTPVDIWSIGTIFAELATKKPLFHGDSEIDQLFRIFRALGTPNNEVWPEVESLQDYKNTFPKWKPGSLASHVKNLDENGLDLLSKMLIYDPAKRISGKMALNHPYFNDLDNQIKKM
Sequence (P20248 whole entry, looked up): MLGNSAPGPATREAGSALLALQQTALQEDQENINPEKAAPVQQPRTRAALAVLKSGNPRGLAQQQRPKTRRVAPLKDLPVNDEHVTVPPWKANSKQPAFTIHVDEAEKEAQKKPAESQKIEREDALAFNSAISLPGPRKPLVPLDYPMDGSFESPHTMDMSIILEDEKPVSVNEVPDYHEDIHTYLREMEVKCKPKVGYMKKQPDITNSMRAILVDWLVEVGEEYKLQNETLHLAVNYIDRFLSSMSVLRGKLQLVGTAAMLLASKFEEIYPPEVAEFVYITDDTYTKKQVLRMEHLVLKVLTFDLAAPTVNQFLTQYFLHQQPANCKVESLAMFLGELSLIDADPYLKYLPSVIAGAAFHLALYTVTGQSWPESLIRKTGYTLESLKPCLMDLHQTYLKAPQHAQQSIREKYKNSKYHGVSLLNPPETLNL
Assay: radiometric filter-binding kinase assay, Kinase HotSpot
Settings: compound 0.5 µM; ATP 10 µM
Mark TRUE only for residual activity values smaller than 90%; exact matches and larger values are FALSE.

### Prompt Item `CCCC(=O)Oc1ccc2[nH]c(C(=O)c3cc4ccccc4[nH]3)cc2c1` : residual activity beneath 90%, strictly?
### Response TRUE

### Prompt Below 90% on residual activity? Entry `Nc1ncnc2c1c(-c1ccc(Oc3ccccc3)cc1)cn2C1CCCC1`
### Response FALSE

### Prompt For this compound, is residual activity lower than 90%? `O=C1NC(=O)c2c1c1c3ccccc3n3c1c1c2c2ccccc2n1C1CCC3O1`
### Response TRUE

### Prompt Is the reported residual activity for `COc1cc2ncnc(Nc3cccc(Cl)c3)c2cc1OC` strictly below 90%?
### Response FALSE

### Prompt For this compound, is residual activity lower than 90%? `Cc1ccc(Nc2nccc(N(C)c3ccc4c(C)n(C)nc4c3)n2)cc1S(N)(=O)=O`
### Response FALSE

### Prompt I wonder whether `O=S(=O)(c1cccc2cnccc12)N1CCCNCC1` has residual activity below 90%. Can you tell?
### Response FALSE

----------
Give residual activity for every item shown.
Target: CSNK2A1 (human) (UniProt P68400)
Sequence (P68400 whole entry, looked up): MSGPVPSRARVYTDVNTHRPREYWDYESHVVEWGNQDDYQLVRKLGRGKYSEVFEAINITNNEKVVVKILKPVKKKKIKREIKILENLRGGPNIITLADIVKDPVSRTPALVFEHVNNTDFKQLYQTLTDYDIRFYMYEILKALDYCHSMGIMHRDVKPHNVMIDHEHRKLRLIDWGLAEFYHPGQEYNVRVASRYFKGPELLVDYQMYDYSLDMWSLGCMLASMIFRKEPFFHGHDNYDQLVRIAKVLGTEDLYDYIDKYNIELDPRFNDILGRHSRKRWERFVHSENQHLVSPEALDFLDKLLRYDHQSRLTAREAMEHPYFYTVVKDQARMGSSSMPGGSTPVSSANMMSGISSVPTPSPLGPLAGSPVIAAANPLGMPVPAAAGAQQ
Experiment: radiometric filter-binding kinase assay, Kinase HotSpot
Details: compound 0.5 µM; ATP 10 µM
Field: numeric (%). Do not append units.

### Prompt What reported residual activity corresponds to `Cc1ccc(NC2=CC(=O)c3sc(C)nc3C2=O)cc1` on CSNK2A1 (human) (UniProt P68400)?
### Response 98.2

### Prompt Provide value of residual activity for this record tested with CSNK2A1 (human) (UniProt P68400): `CCOC(=O)c1c(C)[nH]c(/C=C2\C(=O)Nc3ccccc32)c1C`
### Response 114

### Prompt What is its residual activity for CSNK2A1 (human) (UniProt P68400)? Entry: `COc1ccc2c(c[n+](C)c3c4cc5c(cc4ccc23)OCO5)c1OC`
### Response 83.3

### Prompt Item: `O=C1Nc2ccc(Cl)cc2/C1=C/c1cc(Cl)c(O)c(Cl)c1` Test system: CSNK2A1 (human) (UniProt P68400) Read-out: residual activity Value: ?
### Response 26.5

### Prompt Form field: residual activity recorded for `COc1ccc(COc2ccc(Cc3cnc(N)nc3N)cc2OC)cc1` with CSNK2A1 (human) (UniProt P68400) (enter value)
### Response 105

### Prompt Request body: readout residual activity, system CSNK2A1 (human) (UniProt P68400), query `Cc1[nH]c(/C=C2\C(=O)Nc3ccc(S(=O)(=O)N(C)c4cccc(Cl)c4)cc32)c(C)c1C(=O)N1CCN(C)CC1` . Return the value.
### Response 78.8

### Prompt Notebook entry, CSNK2A1 (human) (UniProt P68400) assay: residual activity of `CC[n+]1c(/C=C/N(C)c2ccccc2)n(-c2ccccc2)c2ccc(-c3nc4ccccc4s3)cc21` = ?
### Response 96.8

### Prompt Missing value: residual activity, CSNK2A1 (human) (UniProt P68400), entry `N#CC(C#N)=C(N)/C(C#N)=C/c1ccc(O)cc1` . Fill in?
### Response 104

### Prompt Return residual activity measured with CSNK2A1 (human) (UniProt P68400) given this compound: `O=c1cc(N2CCOCC2)oc2c1ccc1ccccc12`
### Response 70.9

### Prompt Recorded residual activity for `CNc1cc2c(Nc3cccc(Br)c3)ncnc2cn1` with CSNK2A1 (human) (UniProt P68400), please?
### Response 94.3

### Prompt Missing value: residual activity, CSNK2A1 (human) (UniProt P68400), entry `c1ccc(-c2n[nH]cc2-c2ccnc3ccccc23)nc1` . Fill in?
### Response 96.3
